target: human B1R (bradykinin receptor 1) (Homo sapiens, UniProt P46663); construct: expressed in transfected cells; host or cells: CHO K1 cells; experiment: FLIPR Ca2+ assay (Fluo-4) on CHO K1 cells stably transfected with the human B1R gene (hB1R cells): % inhibition at 10 μM / IC50, agonist Lys-Des-Arg9-bradykinin; type: cell-based; conditions: CHO-K1, human B1R
Sequence (P46663 whole entry): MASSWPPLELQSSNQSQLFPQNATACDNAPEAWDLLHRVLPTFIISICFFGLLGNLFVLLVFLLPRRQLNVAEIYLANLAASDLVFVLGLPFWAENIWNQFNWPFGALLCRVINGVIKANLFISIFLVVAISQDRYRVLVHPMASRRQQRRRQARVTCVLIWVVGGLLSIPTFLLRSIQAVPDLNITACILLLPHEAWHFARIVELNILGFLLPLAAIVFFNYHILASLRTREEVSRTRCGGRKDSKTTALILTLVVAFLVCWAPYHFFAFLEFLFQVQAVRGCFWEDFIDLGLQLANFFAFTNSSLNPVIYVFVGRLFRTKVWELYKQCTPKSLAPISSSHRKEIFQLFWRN
experimental readout: inhibition at 10 µM (%)

Cc1ccc(F)c(C(=O)NC2CCc3ccc(C(=O)N4CCC5(CC4)CCN(c4ccncc4)CC5)cc32)c1Cl (centres unmarked) :: 83
O=C(c1ccc2c(c1)[C@H](NS(=O)(=O)c1ccccc1C(F)(F)F)CC2)N1CCC2(CCN(c3ccncc3)CC2)C1 :: 100
O=C(N[C@@H]1CCCc2ccc(C(=O)N3CCCC4(CCN(c5ccncc5)C4)C3)cc21)c1ccccc1Cl (some centres unmarked) :: 90
O=C(N[C@@H]1CCOc2cc(F)c(C(=O)N3CCC4(CC3)CCN(c3ccncc3)CC4)cc21)c1ccccc1Cl :: 96
O=C(N[C@@H]1CCc2ccc(C(=O)N3CCC4(CCC(C(=O)N[C@H]5CN6CCC5CC6)CC4)CC3)cc21)c1ccccc1Cl :: 28
O=C(/C=C/c1ccccc1Cl)NC1CCc2ccc(C(=O)N3CCC4(CC3)CCN(c3ccncc3)CC4)cc21 (centres unmarked) :: 72
O=C(N[C@@H]1CCOc2c(F)cc(C(=O)N3CCC4(CC3)CCN(c3ccncc3)CC4)cc21)c1ccccc1Cl :: 100
O=C(c1ccc2c(c1)CC[C@H]2N1Cc2cccc(Cl)c2C1=O)N1CCC2(CCN(c3ccncc3)CC2)C1 :: 98
